src = patent US20230233569A1

Listing: pIC50 of selected compounds
- assay.system: NRAS G12C (Homo sapiens, UniProt P01111+P62937, G12C)
- Sequence (P01111 whole entry G12C): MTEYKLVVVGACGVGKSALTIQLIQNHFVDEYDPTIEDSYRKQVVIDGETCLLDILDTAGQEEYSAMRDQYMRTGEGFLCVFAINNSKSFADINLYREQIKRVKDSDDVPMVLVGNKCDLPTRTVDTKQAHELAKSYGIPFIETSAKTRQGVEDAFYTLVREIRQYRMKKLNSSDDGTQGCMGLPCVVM
- Sequence (P62937 whole entry): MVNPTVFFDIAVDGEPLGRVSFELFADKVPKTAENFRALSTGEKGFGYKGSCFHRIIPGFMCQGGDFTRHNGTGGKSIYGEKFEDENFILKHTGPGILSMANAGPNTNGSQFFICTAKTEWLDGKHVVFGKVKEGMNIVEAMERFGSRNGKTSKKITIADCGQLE
- protocol.text: Disruption of BRAF RBD interaction with Ras (FRET / MOA assay, with Cyclophilin A)
- Format: biochemical
- experimental.setup: NRAS G12C; read-out: NRAS G12C FRET data IC50
- From the text: This protocol may also be executed substituting other Ras proteins or nucleotides. The purpose of this biochemical assay was to measure the ability of test compounds to facilitate ternary complex formation between a nucleotide-loaded K-Ras isoform and Cyclophilin A; the resulting ternary complex disrupts binding to a BRAF^RBD construct, inhibiting K-Ras signaling through a RAF effector. Data is reported as IC50 values. […]
pIC50: −log10 of the molar value.

[in] Look up and state reported pIC50 for CCn1c(-c2cccnc2[C@H](C)OC)c2c3cc(ccc31)-c1csc(n1)C[C@H](NC(=O)[C@H]1C[C@@H]1C)C(=O)N1CCC[C@H](N1)C(=O)OCC(C)(C)C2 [Example A286]
[out] 6.00 to 7.00

[in] Look up and state reported pIC50 for CCn1c(-c2cccnc2COC)c2c3cc(ccc31)-c1cc(O)cc(c1)C[C@H](NC(=O)[C@@H](C(C)C)N(C)C(=O)[C@H]1CCN(C(=O)C#CCN(C)C)C1)C(=O)N1CCC[C@H](N1)C(=O)OCC(C)(C)C2 [Example A156]
[out] 6.00 to 7.00

[in] Look up and state reported pIC50 for CCn1c(-c2cnccc2COC)c2c3cc(ccc31)-c1cc(O)cc(c1)C[C@H](NC(=O)[C@H](C(C)C)N(C)C(=O)[C@@H]1CCN(C[C@@H](C)O)C1)C(=O)N1CCC[C@H](N1)C(=O)OCC(C)(C)C2 [Example A31]
[out] 6.00 to 7.00

[in] Look up and state reported pIC50 for C=CS(=O)(=O)N1CC[C@H](C(=O)N(C)[C@H](C(=O)N[C@H]2Cc3cccc(c3)-c3ccc4c(c3)c(c(-c3cncnc3)n4CC)CC(C)(C)COC(=O)[C@@H]3CCCN(N3)C2=O)C(C)C)C1 [Example A171]
[out] 5.00 to 6.00

[in] Look up and state reported pIC50 for CCn1c(-c2cccnc2[C@H](C)OC)c2c3cc(ccc31)-c1cc(O)cc(c1)C[C@H](NS(=O)(=O)CCN(C)C)C(=O)N1CCC[C@H](N1)C(=O)OCC(C)(C)C2 (racemic) [Example A190]
[out] < 5.00

====

Listing: IC50 of selected molecules
- assay.system: NRAS G12C (Homo sapiens, UniProt P01111+P62937, G12C)
- protocol.text: Disruption of BRAF RBD interaction with Ras (FRET / MOA assay, with Cyclophilin A)
- Type: biochemical
- experimental.setup: NRAS G12C; read-out: NRAS G12C FRET data IC50
- Source text: This protocol may also be executed substituting other Ras proteins or nucleotides. The purpose of this biochemical assay was to measure the ability of test compounds to facilitate ternary complex formation between a nucleotide-loaded K-Ras isoform and Cyclophilin A; the resulting ternary complex disrupts binding to a BRAF^RBD construct, inhibiting K-Ras signaling through a RAF effector. Data is reported as IC50 values. […]

molecule	IC50
CCn1c(-c2cccnc2[C@@H]2CCCO2)c2c3cc(ccc31)-c1csc(n1)C[C@H](NC(=O)[C@H](C(C)C)N(C)C(=O)N1CC(N(C)C)C1)C(=O)N1CCC[C@H](N1)C(=O)OCC(C)(C)C2 (atropisomer, axis not shown)	> 10000 nM

[in] Look up and state reported IC50 for CCn1c(-c2cccnc2[C@H](C)OC)c2c3cc(ccc31)-c1csc(n1)C[C@H](NC(=O)[C@H](C(C)C)N(C)C(=O)N(C)C)C(=O)N1CCC[C@H](N1)C(=O)OCC(C)(C)C2 (racemic)
[out] 10 to 100 nM

[in] Look up and state reported IC50 for CCn1c(-c2cccnc2[C@H](C)OC)c2c3cc(ccc31)-c1csc(n1)C[C@H](NC(=O)[C@H](C(C)C)N(C)C(=O)N1C[C@@H]3CN(C)CC[C@@H]31)C(=O)N1CCC[C@H](N1)C(=O)OCC(C)(C)C2
[out] 100 to 1000 nM

[in] Look up and state reported IC50 for C=CC(=O)N1CC[C@H](C(=O)N(C)[C@H](C(=O)N[C@H]2Cc3nc(cs3)-c3ccc4c(c3)c(c(-c3cccnc3[C@H](C)OC)n4CC)CC(C)(C)CN(C)C[C@@H]3CCCN(N3)C2=O)C(C)C)C1
[out] > 10000 nM
